assay: qHTS assay to identify small molecule antagonists of the estrogen related receptor (ERR) signaling pathway from Tox21 library (AID 1224848); conditions: ERR reporter cell line, luciferase antagonist mode, 18 h; series mostly up to 92.4 µM; note: nearly all actives have a fitted effect of over 50% in size; note: potency is the fitted concentration of half-maximal effect
Records with an inconclusive call do not appear. The source made the active and inactive calls. Calls come from the whole dose curve; as a rule, active = well fitted inhibition curve with a large enough effect in the repeat runs; inconclusive = weak or mixed curves; inactive = no such curve, though single readings can be large or run the other way.
parameter: Potency

CC[N+](CC)(CC)Cc1ccccc1 | inactive
O=S(=O)(O)CCCN1CCOCC1 | inactive
CCc1c(Br)c(Br)c(Br)c(Br)c1Br | inactive
CNC(=S)NN | 13.7 µM (active)
CSc1ccc2c(c1)N(CCC1CCCCN1C)c1ccccc1S2 (stereo not drawn) | 27.2 µM (active)
CC(C)(C)c1cc(/C=C2\SC(=N)NC2=O)cc(C(C)(C)C)c1O | 48.6 µM (active)
CO[Si](CCCNCCNCCN)(OC)OC | inactive
CCO[Si](C)(C)OCC | inactive
CCCCCCOc1cc(C)c(O)c(C)c1C | 61.9 µM (active)
CCN(CC)c1ccc(N)cc1 | 2.5 µM (active)

Recorded result, COC(=O)NCCC[Si](OC)(OC)OC , Potency: inactive

Recorded result, Cn1cccc1 , Potency: inactive

Recorded result, CCC(C)c1cc([N+](=O)[O-])cc([N+](=O)[O-])c1OC(=O)OC(C)C (stereo not drawn) , Potency: 19.3 µM (active)

Recorded result, O=C1c2c(O)ccc([N+](=O)[O-])c2C(=O)c2c([N+](=O)[O-])ccc(O)c21 , Potency: 15.2 µM (active)

Recorded result, O=C1C=CC(=O)N1c1ccccc1 , Potency: 54.5 µM (active)

Recorded result, CC1=CP(=O)(c2ccccc2)CC1 (stereo not drawn) , Potency: inactive

Recorded result, Cc1cc(Nc2ccc(O)cc2)ccc1N , Potency: 19.2 µM (active)

Recorded result, CC(C)=CCCC(C)O (stereo not drawn) , Potency: inactive

Recorded result, CC(COC(=O)c1ccccc1)OC(=O)c1ccccc1 (stereo not drawn) , Potency: inactive

Recorded result, CNC(=O)c1cc(Oc2ccc(NC(=O)Nc3ccc(Cl)c(C(F)(F)F)c3)cc2)ccn1 , Potency: 8.41 µM (active)

Recorded result, CCc1cccc(CC)c1N(COC)C(=O)CS(=O)(=O)O , Potency: inactive

Recorded result, CC(C)(c1cc(Br)c(OCCO)c(Br)c1)c1cc(Br)c(OCCO)c(Br)c1 , Potency: 11.9 µM (active)

Recorded result, CCCCCCCCCC(=O)N(C)C , Potency: inactive

* * *

assay: qHTS RealTime-Glo MT Cell Viability Assay in HepG2 cells - 16 hour (AID 1224885); details: RealTime-Glo luminescence; series mostly up to 76.8 µM; note: % is set by controls: 0 for no effect and ±100 for the full control effect; nearly all actives have a fitted effect of over 50% in size
Records with an inconclusive call do not appear. Calls of active or inactive are those of the source. Calls follow the shape of the dose curve; as a rule, active = well fitted cell-killing curve with a large enough effect in the repeat runs; inconclusive = weak or mixed curves; inactive = flat fitted curve, though single readings scatter.
parameter: activity change, negative = cytotoxic

# count of solved cases: 6
COc1cc(C(C)C)c2c(c1)S(=O)(=O)N(COc1cc(=O)n3cccc(OCCN4CCCCC4)c3n1)C2=O | -16.4% [at 15.8 µM] (inactive)
C=C/C=C/C=C/CCCCC | -10.1% [at 15.8 µM] (inactive)
O=S(=O)(O)c1cc(S(=O)(=O)O)c2ccc3c(S(=O)(=O)O)cc(S(=O)(=O)O)c4ccc1c2c43 | 2.01% [at 15.8 µM] (inactive)
C=CC(=C)CC/C=C(\C)CCC=C(C)C | 1.17% [at 15.8 µM] (inactive)
CCN1CCN(c2cc(-c3ccc(F)cc3)c3c(n2)CCCCCC3)CC1 | -4% [at 15.8 µM] (inactive)
CCCCCCCCCCCCCCCCCO | 1.76% [at 15.8 µM] (inactive)

Lab note: next compound to report on.
Recorded result, O=S(O)O , activity change, negative = cytotoxic: 2.97% [at 15.8 µM] (inactive)
